Kindly state target (unweighted spectral count, OC43 Probe II) for each of the entries shown.
- System: HCoV-OC43 gRNA and sgRNA
- Assay type: binding
- CONDITION_PARAMETERS: type n_48_v; 48 hpi; OC43 Probe II capture on infected cells
Give bare numbers.

MOLECULE | RESULT
RALY: host protein, UniProt Q9UKM9 (protein, UniProt Q9UKM9 2-306, looked up) RNA-binding protein Raly: SLKLQASNVTNKNDPKSINSRVFIGNLNTALVKKSDVETIFSKYGRVAGCSVHKGYAFVQYSNERHARAAVLGENGRVLAGQTLDINMAGEPKPDRPKGLKRAASAIYSGYIFDYDYYRDDFYDRLFDYRGRLSPVPVPRAVPVKRPRVTVPLVRRVKTNVPVKLFARSTAVTTSSAKIKLKSSELQAIKTELTQIKSNIDALLSRLEQIAAEQKANPDGKKKGDGGGAGGGGGGGGSGGGGSGGGGGGGSSRPPAPQENTTSEAGLPQGEARTRDDGDEEGLLTHSEEELEHSQDTDADDGALQ | 24
HNRNPC (protein, UniProt P07910 2-306, looked up) Heterogeneous nuclear …: ASNVTNKTDPRSMNSRVFIGNLNTLVVKKSDVEAIFSKYGKIVGCSVHKGFAFVQYVNERNARAAVAGEDGRMIAGQVLDINLAAEPKVNRGKAGVKRSAAEMYGSVTEHPSPSPLLSSSFDLDYDFQRDYYDRMYSYPARVPPPPPIARAVVPSKRQRVSGNTSRRGKSGFNSKSGQRGSSKSGKLKGDDLQAIKKELTQIKQKVDSLLENLEKIEKEQSKQAVEMKNDKSEEEQSSSSVKKDETNVKMESEGGADDSAEEGDLLDDDDNEDRGDDQLELIKDDEKEAEEGEDDRDSANGEDDS | 88
LRRC59 (protein, UniProt Q96AG4 1-307, looked up) Leucine-rich …: MTKAGSKGGNLRDKLDGNELDLSLSDLNEVPVKELAALPKATILDLSCNKLTTLPSDFCGLTHLVKLDLSKNKLQQLPADFGRLVNLQHLDLLNNKLVTLPVSFAQLKNLKWLDLKDNPLDPVLAKVAGDCLDEKQCKQCANKVLQHMKAVQADQERERQRRLEVEREAEKKREAKQRAKEAQERELRKREKAEEKERRRKEYDALKAAKREQEKKPKKEANQAPKSKSGSRPRKPPPRKHTRSWAVLKLLLLLLLFGVAGGLVACRVTELQQQPLCTSVNTIYDNAVQGLRRHEILQWVLQTDSQQ | 5

The molecule listed as NHP2 (protein, UniProt Q9NX24 1-153, looked up) H/ACA ribonucleoprotein …: MTKIKADPDGPEAQAEACSGERTYQELLVNQNPIAQPLASRRLTRKLYKCIKKAVKQKQIRRGVKEVQKFVNKGEKGIMVLAGDTLPIEVYCHLPVMCEDRNLPYVYIPSKTDLGAAAGSKRPTCVIMVKPHEEYQEAYDECLEEVQSLPLPL shows target (unweighted spectral count, OC43 Probe II) equal to 6
